Value source: the RNAGym collection of RNA variant scans (doi:10.1073/pnas.2313332121)

variants and their reported polymerase ribozyme fitness (log ratio)
B1: TPR 5TU (parent)
chain: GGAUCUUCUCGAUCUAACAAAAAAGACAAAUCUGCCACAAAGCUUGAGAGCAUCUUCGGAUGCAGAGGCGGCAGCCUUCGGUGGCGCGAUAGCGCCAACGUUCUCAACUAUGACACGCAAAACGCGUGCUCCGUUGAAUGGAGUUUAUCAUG

- Variants of: B1
- test_name: polymerase ribozyme fitness, log enrichment relative to wild type (log ratio); higher = more active; in vitro selection for triplet polymerase activity
Fewer inactive variants are shown than the library holds.

Some solved cases for reference:
A119U U127C ... -2.06
U55G A60U G83C A137U G141U ... ≤ -4.2

Suppose we examine the variant U45G G48A G88C A106G ; what polymerase ribozyme fitness (log ratio) value has been reported? ≤ -4.2

Suppose we examine the variant C54G C76A A89C A98U A115U U151A ; what polymerase ribozyme fitness (log ratio) value has been reported? ≤ -4.2

Suppose we examine the variant U15C G84C C125U U134G A150U ; what polymerase ribozyme fitness (log ratio) value has been reported? ≤ -4.2

Suppose we examine the variant A26C C43U A52G G71C A97G ; what polymerase ribozyme fitness (log ratio) value has been reported? ≤ -4.2

Suppose we examine the variant C85A G117A ; what polymerase ribozyme fitness (log ratio) value has been reported? -1.76

Suppose we examine the variant A21G A40U ; what polymerase ribozyme fitness (log ratio) value has been reported? 0.957

Suppose we examine the variant U4A A12U G80U G81U G92C ; what polymerase ribozyme fitness (log ratio) value has been reported? -0.513

Suppose we examine the variant U7G A21C C35A A47C C99A C123A ; what polymerase ribozyme fitness (log ratio) value has been reported? ≤ -4.2

Suppose we examine the variant A12G G92C G133U ; what polymerase ribozyme fitness (log ratio) value has been reported? -3.59
